Tested on: tonic seizures induced by N-methyl-DL-aspartic acid (NMDLA) in male Swiss-Webster mice
TEST: Antagonism of NMDLA-induced tonic seizures in mice
Format: in vivo, mouse (Swiss-Webster)
CONDITION_INFO: iv; mouse, i.v. test compound 15 min before s.c. NMDLA 500 mg/kg; observed 30 min; probit analysis
Counter-ions that a name gives are not always drawn.
TEST_READOUT: ED50

Worked examples, 3 compounds total:
>  <COMPOUND>
CC12Cc3ccccc3CC(N1)c1ccccc12 (stereo not shown) [Example 1, Hydrochloride]

>  <ENDPOINT_RESULT>
< 5 mg/kg

$$$$
>  <COMPOUND>
CC12Cc3ccccc3CC(C)(N1)c1ccccc12 [Example 16, hydrochloride]

>  <ENDPOINT_RESULT>
< 5 mg/kg

$$$$
>  <COMPOUND>
CC12Cc3ccccc3CC(O)(N1)c1ccccc12 (stereo not shown) [Example 15, hydrochloride]

>  <ENDPOINT_RESULT>
< 5 mg/kg

$$$$

Next, consider the following compound.
Query: Assign ED50 to the following record: CC12Cc3ccc(Br)cc3CC(N1)c1ccccc12 (stereo not shown) [Example 3, hydrochloride]
Response: < 5 mg/kg
